The following compounds are listed with their measured GI50 values.
- Test system: SF-268
- protocolDetails: NCI tumour cell line growth inhibition, 48 h
The source made the active and inactive calls. No stated cut-off is given here; in the data, active = GI50 up to about 1.1 µM and inactive = higher.

{"compound": "CC(=N/NC(=S)N1CCCCCC1)/C(C)=N\\NC(=S)N1CCCCCC1", "targetOfAssay": "SF-268", "GI50": "3.45 µM (inactive)"}

State its GI50 on SF-268: [N-]=[N+]=NC1(c2ccccc2)C(=O)Nc2ccccc2C1=O (configuration not stated) 38.2 µM (inactive)

State its GI50 on SF-268: CCOP(=O)(OCC)C(c1ccc(F)cc1)N(C(=O)NC(F)(F)F)c1cccc(C(F)(F)F)c1 (configuration not stated) > 100 µM (inactive)

State its GI50 on SF-268: `Cn1ncc2c(=O)[nH]c(-c3ccccc3)nc21` > 100 µM (inactive)

State its GI50 on SF-268: COc1cc2c(cc1O)C(Cc1ccc(OCc3ccccc3)c(OCc3ccccc3)c1)N(C(=O)NCCc1ccccc1)CC2 (configuration not stated) > 100 µM (inactive)

State its GI50 on SF-268: CC[C@@H]1/C=C/C=C/C[C@H](C)[C@@H](O)[C@](C)(O)C(=O)[C@H](C)[C@@H](O)[C@H](C)C(=O)[C@H](C)[C@@H](O)[C@H](C)/C=C/C(=O)O[C@H]2[C@@H](C)[C@@H](CC1)O[C@]1(O[C@H](CC(C)O)[C@H](C)CC1=O)[C@@H]2C (some centres not stated) 3.71 µM (inactive)

State its GI50 on SF-268: COC(=O)C1=C(OC(=O)/C(=C/c2ccccc2)c2ccc([N+](=O)[O-])cc2)C(C(=O)OC)[C@@]2(O)[C@@H](C(=O)OC)[C@H](C)C[C@@H]1[C@@H]2C(=O)OC (some centres not stated) > 100 µM (inactive)

State its GI50 on SF-268: `Clc1cccc(-c2sc(-c3cccs3)cc2Cc2cccs2)c1` > 10 µM (inactive)
